Listing of recorded melting point by entry.
Counter-ions that a name gives are not always drawn.
measurementKind: melting point

c1ccc2c(c1)ncc1nc3n(c12)[C@@H](C1CCOCC1)COC3 :: 234 to 237 °C
C[C@H]1COCc2nc3c(N)nc4cc(O)ccc4c3n21 :: > 250 °C
CC(C)[C@H]1COCc2nc3c(N)nc4cc(O)ccc4c3n21 :: 210 to 215 °C
Nc1nc2ccccc2c2c1nc1n2[C@@H](COCc2ccc(F)cc2)COC1 :: 134 to 137 °C
CC(C)[C@H]1COCc2nc3c(N)nc4ccccc4c3n21 :: 249 to 250 °C
CC(C)(F)[C@H]1COCc2nc3c(N)nc4c(c3n21)CCCC4 :: 195.5 to 197 °C
CC(C)(O)[C@@H]1COCc2nc3c(N)nc4ccccc4c3n21 (as salt: hydrochloride) :: 218 to 219 °C
CC(C)(F)[C@@H]1COCc2nc3c(N)nc4ccccc4c3n21 :: 242 to 244 °C
CC(C)(O)[C@H]1COCc2nc3c(N)nc4ccccc4c3n21 :: 216 to 217 °C
Nc1nc2ccccc2c2c1nc1n2[C@@H](Cc2ccccc2)COC1 :: 170 to 177 °C
CC(C)[C@H]1COCc2nc3c(N)nc4ccc(OCc5ccccc5)cc4c3n21 :: 139 to 141 °C
C#CCOc1ccc2nc(N)c3nc4n(c3c2c1)[C@@H](C)COC4 :: 184 to 186 °C
C[C@H]1CN(S(C)(=O)=O)Cc2nc3c(N)nc4ccccc4c3n21 :: 258 to 261 °C
C[C@H]1COCc2nc3c(N)nc4c(c3n21)CCCC4 :: 209 to 211 °C
Nc1nc2ccccc2c2c1nc1n2[C@@H](CCl)COC1 :: 230 to 232 °C
C[C@H]1COCc2nc3c(N)nc4cccnc4c3n21 :: 240 to 242 °C
C[C@H]1COCc2nc3c(N)nc4cc(/C=C/C(=O)N5CCOCC5)ccc4c3n21 :: > 250 °C
CC(C)[C@H]1COCc2nc3c(N)nc4cc(OCCN5CCOCC5)ccc4c3n21 :: 194 to 195 °C
Nc1nc2ccccc2c2c1nc1n2[C@@H](C2CCOCC2)COC1 :: 240.4 to 243.4 °C
CC(C)(F)[C@H]1COCc2nc3c(N)nc4cccnc4c3n21 :: 192 to 194 °C
C[C@H]1COCc2nc3c(N)nc4ccc(OC(=O)N5CCCC5)cc4c3n21 :: 218 to 219 °C
Nc1nc2ccccc2c2c1nc1n2[C@@H](c2ccccc2)COC1 :: 284 to 286 °C

Origin of the recorded values: patent US8546383B2
